Where do the numbers come from? From ChEMBL document CHEMBL2218924.

Target: Tyrosine-protein kinase JAK2 (Homo sapiens) (UniProt O60674)
Sequence (O60674 whole entry): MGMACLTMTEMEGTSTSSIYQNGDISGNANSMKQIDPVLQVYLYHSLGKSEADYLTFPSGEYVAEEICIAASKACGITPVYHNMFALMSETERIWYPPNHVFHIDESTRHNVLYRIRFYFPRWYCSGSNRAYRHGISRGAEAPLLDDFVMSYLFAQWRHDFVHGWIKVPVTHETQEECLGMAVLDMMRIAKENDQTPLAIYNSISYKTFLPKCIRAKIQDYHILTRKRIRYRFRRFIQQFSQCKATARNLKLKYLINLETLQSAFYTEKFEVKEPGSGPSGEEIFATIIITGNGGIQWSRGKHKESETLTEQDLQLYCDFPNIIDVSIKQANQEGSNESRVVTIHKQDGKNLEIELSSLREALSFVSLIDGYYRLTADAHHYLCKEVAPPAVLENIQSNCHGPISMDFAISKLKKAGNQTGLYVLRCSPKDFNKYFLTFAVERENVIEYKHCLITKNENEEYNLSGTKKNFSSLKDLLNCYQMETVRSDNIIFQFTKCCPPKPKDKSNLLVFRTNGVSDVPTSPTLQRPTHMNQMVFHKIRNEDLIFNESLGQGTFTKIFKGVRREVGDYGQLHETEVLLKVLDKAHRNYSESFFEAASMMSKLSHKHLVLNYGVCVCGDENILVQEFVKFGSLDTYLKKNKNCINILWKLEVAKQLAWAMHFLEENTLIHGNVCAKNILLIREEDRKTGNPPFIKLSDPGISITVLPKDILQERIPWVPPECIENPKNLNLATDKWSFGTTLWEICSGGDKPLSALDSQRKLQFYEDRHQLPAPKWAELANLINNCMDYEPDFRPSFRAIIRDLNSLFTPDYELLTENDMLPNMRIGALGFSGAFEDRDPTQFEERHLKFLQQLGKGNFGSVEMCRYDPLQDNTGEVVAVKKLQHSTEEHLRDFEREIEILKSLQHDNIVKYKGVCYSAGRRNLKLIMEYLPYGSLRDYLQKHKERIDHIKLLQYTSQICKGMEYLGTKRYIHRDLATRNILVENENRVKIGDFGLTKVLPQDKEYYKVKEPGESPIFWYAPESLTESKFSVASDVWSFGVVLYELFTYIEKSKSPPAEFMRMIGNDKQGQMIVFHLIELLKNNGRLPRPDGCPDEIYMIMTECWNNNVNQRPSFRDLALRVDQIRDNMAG
Details: at 1 µM
ASSAY METRIC: residual activity (%)

{"MOLECULE SMILES": "CCc1nc(-c2ccc(OC)cc2)[nH]c1-c1ccncc1", "OBSERVED MEASUREMENT": 100}
{"MOLECULE SMILES": "CCn1cnc2c(Nc3cccc(Cl)c3)nc(N[C@@H]3CCCC[C@@H]3N)nc21", "OBSERVED MEASUREMENT": 116}
{"MOLECULE SMILES": "COc1ccc2c(c[n+](C)c3c4cc5c(cc4ccc23)OCO5)c1OC", "OBSERVED MEASUREMENT": 80}
{"MOLECULE SMILES": "O=[N+]([O-])/C=C/c1ccc2c(c1)OCO2", "OBSERVED MEASUREMENT": 73}
{"MOLECULE SMILES": "CC(C)(C)c1cc(C=C(C#N)C#N)cc(Br)c1O", "OBSERVED MEASUREMENT": 110}
{"MOLECULE SMILES": "O=c1[nH]c2ccccc2n1C1CCN(Cc2ccc(-c3nc4cc5[nH]cnc5cc4nc3-c3ccccc3)cc2)CC1", "OBSERVED MEASUREMENT": 120}
{"MOLECULE SMILES": "O=C1c2ccccc2-c2nc3nnnn3nc21", "OBSERVED MEASUREMENT": 111}
{"MOLECULE SMILES": "O=C1Nc2ccc3ncsc3c2/C1=C/c1c[nH]cn1", "OBSERVED MEASUREMENT": 59}
{"MOLECULE SMILES": "O=C1NC(=O)c2c1c1c3ccccc3n3c1c1c2c2ccccc2n1C1CCC3O1", "OBSERVED MEASUREMENT": 86}
{"MOLECULE SMILES": "COc1cc2ncnc(Nc3ccc(OCc4ccccc4)cc3)c2cc1OC", "OBSERVED MEASUREMENT": 110}
{"MOLECULE SMILES": "COC(=O)[C@@]1(O)C[C@H]2O[C@]1(C)n1c3ccccc3c3c4c(c5c6ccccc6n2c5c31)C(=O)NC4", "OBSERVED MEASUREMENT": 2}

###

// reported residual activity for each item listed
Biological target: Serine/threonine-protein kinase pim-2 (Homo sapiens) (UniProt Q9P1W9)
Sequence (Q9P1W9 whole entry, looked up): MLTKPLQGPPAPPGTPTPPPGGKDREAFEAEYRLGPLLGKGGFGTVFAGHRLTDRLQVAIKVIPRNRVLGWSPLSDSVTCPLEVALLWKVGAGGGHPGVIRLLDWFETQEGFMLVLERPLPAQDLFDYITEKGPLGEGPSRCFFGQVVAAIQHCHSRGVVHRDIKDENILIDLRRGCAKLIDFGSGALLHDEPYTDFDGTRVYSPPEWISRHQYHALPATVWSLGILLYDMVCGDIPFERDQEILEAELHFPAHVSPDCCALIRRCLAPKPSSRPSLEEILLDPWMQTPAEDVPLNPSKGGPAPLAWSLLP
Details: at 10 µM
ASSAY METRIC: residual activity (%)

{"COMPOUND": "COc1ccc2c(c1)/C(=C/c1cnc[nH]1)C(=O)N2", "UOM": "%", "OBSERVED MEASUREMENT": 19}
{"COMPOUND": "O=C1NC(=O)c2c1c1c3ccccc3n3c1c1c2c2ccccc2n1C1CCC3O1", "UOM": "%", "OBSERVED MEASUREMENT": -2}
{"COMPOUND": "O=C1Nc2ccc3ncsc3c2/C1=C/c1c[nH]cn1", "UOM": "%", "OBSERVED MEASUREMENT": 3}
{"COMPOUND": "COC(=O)[C@@]1(O)C[C@H]2O[C@]1(C)n1c3ccccc3c3c4c(c5c6ccccc6n2c5c31)C(=O)NC4", "UOM": "%", "OBSERVED MEASUREMENT": -2}
{"COMPOUND": "C[S+]([O-])c1ccc(-c2nc(-c3ccc(F)cc3)c(-c3ccncc3)[nH]2)cc1 (centres undefined)", "UOM": "%", "OBSERVED MEASUREMENT": 96}
{"COMPOUND": "CCn1cnc2c(Nc3cccc(Cl)c3)nc(N[C@@H]3CCCC[C@@H]3N)nc21", "UOM": "%", "OBSERVED MEASUREMENT": 39}
{"COMPOUND": "O=C1c2ccccc2-c2nc3nnnn3nc21", "UOM": "%", "OBSERVED MEASUREMENT": 108}
{"COMPOUND": "c1cc(-c2cnn3cc(-c4ccc(OCCN5CCCCC5)cc4)cnc23)ccn1", "UOM": "%", "OBSERVED MEASUREMENT": 127}
{"COMPOUND": "CC(C)[C@H](CO)Nc1nc(Nc2cccc(Cl)c2)c2ncn(C(C)C)c2n1", "UOM": "%", "OBSERVED MEASUREMENT": 122}
